Parameter: protein stability index. Scope: all listed entries.
B1: MED27 (parent)
chain: YNENVYTEDGKLDIWSKSNYQVFQ

Variants of: B1
testSummary: protein stability index of a GFP-peptide fusion (GPS, HEK-293T) (PSI 1-6); higher = more stable;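 note: lentivirally expressed fusions sorted by FACS into six bins by GFP to DsRed ratio, PSI derived from sequencing read proportions per bin multiplied by bin number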
reportedConditions: c terminus: a fixed tail appended
API doc: respond with a numeric literal and nothing else, no unit.

{"sequenceVariant": "I14R", "protein stability index": 3.23}

Q. For `D13Y` , what is its reported protein stability index?
A. 2.04

Q. // query: `T7Q`
A. 2.48

Q. // query: `Q21W`
A. 2.45

Q. // query: `N19R`
A. 2.4

Q. // query: `S16G`
A. 2.33

Q. // query: `V5C`
A. 2.05

Q. // query: `Y6E`
A. 3.17

Q. // query: `V22Y`
A. 2.42

Q. // query: `Q24A`
A. 1.94

Q. // query: `Y6V`
A. 3.02

Q. // query: `G10N`
A. 2.54

Q. // query: `E3P`
A. 1.31

Q. // query: `N4Q`
A. 2.53

Q. // query: `Q24G`
A. 2.21

Q. // query: `F23G`
A. 2.88

All figures here come from the supplement of paper PMC10567573.
